system: DAF-12 nuclear receptor (Haemonchus contortus); assay: hcDAF-12 driven luciferase reporter activation – cell-based, luminescence, HEK293, lit1-tk-luc reporter, primary screen (AID 652067); conditions: HEK293 hcDAF-12 lit1-tk-luc reporter, at 6.8 µM, 0% DMSO, 100% Δ7-dafachronic acid
About 5,400 (1.5%) of roughly 370,000 compounds were called active.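 The calls were made as follows: active = activation above the mean of all tested compounds plus 3 SD (cut at about 5.5% in these data); inactive = the rest.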 What follows is part of a selection rich in actives, with near analogues and random picks from the rest.
Hello, when you answer, please use one of the following outcomes: true for active, false for inactive

Challenge: // param item: Cc1ccc(C)c(C(C)NC(=O)C2CCCO2)c1 (stereo unspecified) ; yields the recorded call
Response given: false

Challenge: // param item: O=C(CNC(=O)c1ccc2ccccc2c1)Nc1ncccc1O ; yields the recorded call
Response given: false

Challenge: // param item: CCC(C)C(=O)Nc1cc([N+](=O)[O-])ccc1Cl (stereo unspecified) ; yields the recorded call
Response given: false

Challenge: // param item: CC(C)N1CCCCC(NC(=O)C(C)(C)C)C1=O (stereo unspecified) ; yields the recorded call
Response given: false

Challenge: // param item: CCN(CC)CCn1c2c(c(SCC(=O)Nc3nc4ccccc4s3)nc1=O)CCCC2 ; yields the recorded call
Response given: false

Challenge: // param item: Cc1cc(O)c(Sc2ccccc2)c(=O)o1 ; yields the recorded call
Response given: false

Challenge: // param item: O=C1NC(Nc2nc3ccccc3s2)(C(F)(F)F)C(=O)N1C1CCCCC1 (stereo unspecified) ; yields the recorded call
Response given: false

Challenge: // param item: O=C(NCC(=O)N1CCN(c2ccccc2O)CC1)c1ccc2ccccc2c1 ; yields the recorded call
Response given: true

Challenge: // param item: O=C(NCCCc1ccccc1)[C@H](Cc1ccccc1)NC1(C(=O)NCCc2c[nH]c3ccccc23)CCC1 ; yields the recorded call
Response given: false

Challenge: // param item: O=C(CSc1nc2ccccc2s1)N=Nc1c(O)[nH]c2ccccc12 ; yields the recorded call
Response given: false

From: PubChem BioAssay AID652067
